format: physicochemical; conditions: pH 1.8; 2-8° C.; 48 h
reported-property: % assay/degs, difference from T = 0 (%)
Numbers only, in %.

Give % assay/degs, difference from T = 0 for each of the items listed below.
1. N#C[C@@]1(c2ccc3c(N)ncnn23)O[C@H](COP(=O)(O)Oc2ccccc2)[C@@H](O)[C@H]1O
2. N#C[C@@]1(c2ccc3c(N)ncnn23)O[C@H](CO)[C@@H](O)[C@H]1O
3. CCC(CC)COC(=O)[C@H](C)N[P@](=O)(OC[C@H]1O[C@@](C#N)(c2ccc3c(N)ncnn23)[C@H](O)[C@@H]1O)Oc1ccccc1
4. CCC(CC)COC(=O)[C@H](C)N[P@](=O)(OC[C@H]1O[C@@](C(N)=O)(c2ccc3c(N)ncnn23)[C@H](O)[C@@H]1O)Oc1ccccc1

// result
1: 0.39; 2: 0.02; 3: −0.2; 4: 0.00

----------
assay type: physicochemical; conditions: pH 3.5; Ambient; 168 h
reported-property: % assay/degs, difference from T = 0
Answer with the figure and its unit, nothing else.

As a guide, the following entries are already answered.
# molecule, % assay/degs, difference from T = 0
records = [
    ("CCC(CC)COC(=O)[C@H](C)N[P@](=O)(OC[C@H]1O[C@@](C(N)=O)(c2ccc3c(N)ncnn23)[C@H](O)[C@@H]1O)Oc1ccccc1 [Compound G]", "0.00%"),
    ("N#C[C@@]1(c2ccc3c(N)ncnn23)O[C@H](CO)[C@@H](O)[C@H]1O [Compound A]", "0.01%"),
    ("N#C[C@@]1(c2ccc3c(N)ncnn23)O[C@H](COP(=O)(O)Oc2ccccc2)[C@@H](O)[C@H]1O [Compound F]", "0.19%"),
]

// query Which % assay/degs, difference from T = 0 value is on record for CCC(CC)COC(=O)[C@H](C)N[P@](=O)(OC[C@H]1O[C@@](C#N)(c2ccc3c(N)ncnn23)[C@H](O)[C@@H]1O)Oc1ccccc1 [Formula Ia] ?
// result 0.2%

----------
format: physicochemical; conditions: pH 4.0; Ambient; 168 h
Would you kindly list % assay/degs, difference from T = 0 for each of these compounds?
Answer with the figure and its unit, nothing else.

# compound, % assay/degs, difference from T = 0
measured = [
    ("CCC(CC)COC(=O)[C@H](C)N[P@](=O)(OC[C@H]1O[C@@](C(N)=O)(c2ccc3c(N)ncnn23)[C@H](O)[C@@H]1O)Oc1ccccc1 [Compound G]", "0.00%"),
    ("N#C[C@@]1(c2ccc3c(N)ncnn23)O[C@H](COP(=O)(O)Oc2ccccc2)[C@@H](O)[C@H]1O [Compound F]", "0.07%"),
    ("N#C[C@@]1(c2ccc3c(N)ncnn23)O[C@H](CO)[C@@H](O)[C@H]1O [Compound A]", "0.00%"),
]

Moving on to the next compound.
// query Which % assay/degs, difference from T = 0 value is on record for CCC(CC)COC(=O)[C@H](C)N[P@](=O)(OC[C@H]1O[C@@](C#N)(c2ccc3c(N)ncnn23)[C@H](O)[C@@H]1O)Oc1ccccc1 [Formula Ia] ?
// result −0.2%

----------
experiment: in vivo; details: both, monkey, inhaled or intranasal, 0.168 mg/kg
reported-property: Cmax (nM)
Numbers only, in nM.

// query Which Cmax value is on record for CCC(CC)COC(=O)[C@H](C)N[P@](=O)(OC[C@H]1O[C@@](C#N)(c2ccc3c(N)ncnn23)[C@H](O)[C@@H]1O)Oc1ccccc1 ?
// result 39

----------
assay type: physicochemical; conditions: pH 4.0; Ambient; 24 h
Would you kindly list % assay/degs, difference from T = 0 for each of these compounds?
Answers are plain numbers, in %.

As a guide, the following entries are already answered.
# compound, recorded-measurement
measured = [
    ("CCC(CC)COC(=O)[C@H](C)N[P@](=O)(OC[C@H]1O[C@@](C#N)(c2ccc3c(N)ncnn23)[C@H](O)[C@@H]1O)Oc1ccccc1 [Formula Ia]", 0.3),
    ("N#C[C@@]1(c2ccc3c(N)ncnn23)O[C@H](COP(=O)(O)Oc2ccccc2)[C@@H](O)[C@H]1O [Compound F]", 0.01),
    ("N#C[C@@]1(c2ccc3c(N)ncnn23)O[C@H](CO)[C@@H](O)[C@H]1O [Compound A]", 0.00),
]

Moving on to the next compound.
// query Which % assay/degs, difference from T = 0 value is on record for CCC(CC)COC(=O)[C@H](C)N[P@](=O)(OC[C@H]1O[C@@](C(N)=O)(c2ccc3c(N)ncnn23)[C@H](O)[C@@H]1O)Oc1ccccc1 [Compound G] ?
// result 0.00

----------
Would you kindly list % assay/degs, difference from T = 0 for each of these molecules?
type: physicochemical; details: pH 2.0; 2-8° C.; 24 h
One number for each entry, in %.

As a guide, the following entries are already answered.
# molecule, % assay/degs, difference from T = 0 / %
rows = [
    ("CCC(CC)COC(=O)[C@H](C)N[P@](=O)(OC[C@H]1O[C@@](C(N)=O)(c2ccc3c(N)ncnn23)[C@H](O)[C@@H]1O)Oc1ccccc1 [Compound G]", 0.00),
    ("CCC(CC)COC(=O)[C@H](C)N[P@](=O)(OC[C@H]1O[C@@](C#N)(c2ccc3c(N)ncnn23)[C@H](O)[C@@H]1O)Oc1ccccc1 [Formula Ia]", 0.2),
    ("N#C[C@@]1(c2ccc3c(N)ncnn23)O[C@H](COP(=O)(O)Oc2ccccc2)[C@@H](O)[C@H]1O [Compound F]", 0.13),
]

Moving on to the next molecule.
// query Which % assay/degs, difference from T = 0 value is on record for N#C[C@@]1(c2ccc3c(N)ncnn23)O[C@H](CO)[C@@H](O)[C@H]1O [Compound A] ?
// result 0.00

----------
type: physicochemical; conditions: pH 2.0; Ambient; 1 h
Would you kindly list % assay/degs, difference from T = 0 for each of these compounds?
Answers are plain numbers, in %.

As a guide, the following entries are already answered.
# compound, recorded-measurement
rows = [
    ("CCC(CC)COC(=O)[C@H](C)N[P@](=O)(OC[C@H]1O[C@@](C#N)(c2ccc3c(N)ncnn23)[C@H](O)[C@@H]1O)Oc1ccccc1 [Formula Ia]", 0.1),
    ("CCC(CC)COC(=O)[C@H](C)N[P@](=O)(OC[C@H]1O[C@@](C(N)=O)(c2ccc3c(N)ncnn23)[C@H](O)[C@@H]1O)Oc1ccccc1 [Compound G]", 0.00),
]

Give % assay/degs, difference from T = 0 for each of the items listed below.
1. N#C[C@@]1(c2ccc3c(N)ncnn23)O[C@H](CO)[C@@H](O)[C@H]1O [Compound A]
2. N#C[C@@]1(c2ccc3c(N)ncnn23)O[C@H](COP(=O)(O)Oc2ccccc2)[C@@H](O)[C@H]1O [Compound F]

// result
[0.00, 0.03]

----------
assay type: physicochemical; conditions: pH 3.8; Ambient; 7.2 h
Would you kindly list % assay/degs, difference from T = 0 for each of these molecules?
Give bare numbers, in %.

As a guide, the following entries are already answered.
# molecule, reported-property, recorded-measurement
measured = [
    ("CCC(CC)COC(=O)[C@H](C)N[P@](=O)(OC[C@H]1O[C@@](C(N)=O)(c2ccc3c(N)ncnn23)[C@H](O)[C@@H]1O)Oc1ccccc1 [Compound G]", "% assay/degs, difference from T = 0", 0.00),
    ("N#C[C@@]1(c2ccc3c(N)ncnn23)O[C@H](CO)[C@@H](O)[C@H]1O [Compound A]", "% assay/degs, difference from T = 0", 0.00),
    ("CCC(CC)COC(=O)[C@H](C)N[P@](=O)(OC[C@H]1O[C@@](C#N)(c2ccc3c(N)ncnn23)[C@H](O)[C@@H]1O)Oc1ccccc1 [Formula Ia]", "% assay/degs, difference from T = 0", 0.0),
]

Moving on to the next molecule.
// query Which % assay/degs, difference from T = 0 value is on record for N#C[C@@]1(c2ccc3c(N)ncnn23)O[C@H](COP(=O)(O)Oc2ccccc2)[C@@H](O)[C@H]1O [Compound F] ?
// result 0.01

----------
assay: PBMC concentrations of metabolites after inhalation in African Green Monkeys; details: both, monkey, in vivo, 0.168 mg/kg
reported-property: concentration at 2 h
Answer with the figure and its unit, nothing else.

// query Which concentration at 2 h value is on record for N#C[C@@]1(c2ccc3c(N)ncnn23)O[C@H](CO)[C@@H](O)[C@H]1O ?
// result 331 nM

----------
Would you kindly list % assay/degs, difference from T = 0 for each of these compounds?
type: physicochemical; conditions: pH 1.8; Ambient; 8 h
Answer with the figure and its unit, nothing else.

As a guide, the following entries are already answered.
# smiles, % assay/degs, difference from T = 0
data = [
    ("N#C[C@@]1(c2ccc3c(N)ncnn23)O[C@H](COP(=O)(O)Oc2ccccc2)[C@@H](O)[C@H]1O", "0.34%"),
    ("N#C[C@@]1(c2ccc3c(N)ncnn23)O[C@H](CO)[C@@H](O)[C@H]1O", "0.01%"),
    ("CCC(CC)COC(=O)[C@H](C)N[P@](=O)(OC[C@H]1O[C@@](C(N)=O)(c2ccc3c(N)ncnn23)[C@H](O)[C@@H]1O)Oc1ccccc1", "0.00%"),
]

// query Which % assay/degs, difference from T = 0 value is on record for CCC(CC)COC(=O)[C@H](C)N[P@](=O)(OC[C@H]1O[C@@](C#N)(c2ccc3c(N)ncnn23)[C@H](O)[C@@H]1O)Oc1ccccc1 ?
// result −0.4%
